Experimental target: T1, Human CD3eg linker (human)
T1 construct: Single chain: epsilon and gamma subunits of human CD3 joined by a 29-mer linker, Flag-tag at the C-terminus; also called recombinant human CD3
T1 chain: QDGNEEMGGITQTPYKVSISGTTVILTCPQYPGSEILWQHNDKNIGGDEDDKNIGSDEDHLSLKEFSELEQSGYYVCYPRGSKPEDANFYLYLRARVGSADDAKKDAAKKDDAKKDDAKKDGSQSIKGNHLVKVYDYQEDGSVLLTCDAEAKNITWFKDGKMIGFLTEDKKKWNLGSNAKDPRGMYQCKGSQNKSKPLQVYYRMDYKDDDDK
Method summary: Biacore SPR, vs template H183/L072
Entries annotated with measured fold change of affinity
Lab book: enter the figure in fold, no units written.

Examples from the recorded data:
Binder: H183/L072 VH A32Q (antibody, name in Kabat numbering, V domains shown) VH: QVQLVESGGGLVQPGRSLRLSCAASGFTFSNQWMHWVRQAPGKGLEWVAQIKDKGNAYAAYYAPSVKGRFTISRDDSKNSIYLQMNSLKTEDTAVYYCHYVHYASASTVLPAFGVDAWGQGTTVTVSS VL: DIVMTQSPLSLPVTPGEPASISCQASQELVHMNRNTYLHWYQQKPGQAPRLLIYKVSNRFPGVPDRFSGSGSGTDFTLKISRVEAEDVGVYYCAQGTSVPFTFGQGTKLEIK
Value observed: 0.4

Binder: H183/L072 VH S100aA (antibody, name in Kabat numbering, V domains shown) VH: QVQLVESGGGLVQPGRSLRLSCAASGFTFSNAWMHWVRQAPGKGLEWVAQIKDKGNAYAAYYAPSVKGRFTISRDDSKNSIYLQMNSLKTEDTAVYYCHYVHYASAATVLPAFGVDAWGQGTTVTVSS VL: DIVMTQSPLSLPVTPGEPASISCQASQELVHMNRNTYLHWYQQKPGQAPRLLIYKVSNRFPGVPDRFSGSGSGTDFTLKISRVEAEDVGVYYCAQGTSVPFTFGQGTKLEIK
Value observed: 0.8

Consider now this further binder.
[Q] fold change of affinity lookup needed for H183/L072 VH Y94I (antibody, name in Kabat numbering, V domains shown) VH: QVQLVESGGGLVQPGRSLRLSCAASGFTFSNAWMHWVRQAPGKGLEWVAQIKDKGNAYAAYYAPSVKGRFTISRDDSKNSIYLQMNSLKTEDTAVYYCHIVHYASASTVLPAFGVDAWGQGTTVTVSS VL: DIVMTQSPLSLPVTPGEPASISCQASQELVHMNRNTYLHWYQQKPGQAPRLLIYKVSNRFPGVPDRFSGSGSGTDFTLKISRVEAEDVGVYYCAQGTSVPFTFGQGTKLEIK , thanks.
[A] 0
